Recorded values, source paper PMC6222759.

# test.summary: Cytotoxicity against macrophage Raw 264.7 cells (MTT assay)
# run.conditions: mouse, Raw 264.7 macrophage cells
endpoint.name: inhibition at 24 h, 20 µM (%)
Numbers only, in %.

Answered examples (2):
molecule="CCCCCCOC1O[C@H](CO)[C@@H](O)[C@H](O)[C@H]1O (stereo partly drawn) [Compound 6, hexyl-O-β-D-Glucopyranoside]" unit_name=% meas_value=1.2
molecule=COC(=O)/C=C1/C[C@H](O)[C@H](OC(=O)C=Cc2ccc(O)c(O)c2)[C@H]1O unit_name=% meas_value=4.7

Below is a list of molecules. For each, state its recorded inhibition at 24 h, 20 µM.
1. CC(C)=C[C@@H]1CC=C[C@]1(C)OC1O[C@H](CO)[C@@H](O)[C@H](O)[C@H]1O (relative stereo)
2. OC[C@H]1O[C@@H](OCCc2ccccc2)[C@H](O)[C@@H](O)[C@@H]1O [Compound 5, 2-phenylethyl β-D-Glucopyranoside]
3. C=CCc1ccc(OC2O[C@H](CO)[C@@H](O[C@H]3[C@H](O)[C@@H](O)[C@H](OCC4(CC)CC4)O[C@@H]3CO)[C@H](O)[C@H]2O)c(OC)c1 (some centres unmarked)

Result:
[1.8, 4.5, -0.5]

###

# test.summary: in vitro
# run.conditions: mouse
endpoint.name: inhibition at 24 h, 20 µM
Numeric answer plus unit only.

compound=O=C(O)/C=C/c1ccc(O)c(O)c1 endpoint_name="inhibition at 24 h, 20 µM" meas_value=1.1%

--- query ---
Q: Please give the documented inhibition at 24 h, 20 µM of COC(=O)c1cc(O)c(O)c(O)c1 [Compound 7, methyl gallate]
Result: 2.4%
